test: Metabolic stability test: liver microsomal stability assay; assay type: in vitro ADME, mouse; settings: mouse liver microsomes 0.5 mg protein/mL, compound 1 µM, absence of NADPH
Starred links: 1 amine or outer side, 2 acyl side, 3 side chain; linkers in the order of their positions; H or OH if unused. Positions of bridges follow the written chain, without caps; N, C: chain ends. Non-standard residues stand in square brackets, D forms with d. Residues, ends and D or L forms follow the SMILES beside them. *: point of attachment. NMedβ3hAla = C[C@H](CC(=O)[*:2])N(C)[*:1]; NMeF = CN[C@@H](Cc1ccccc1)C(=O)O; NMeGABA = CN(CCCC(=O)[*:2])[*:1]; NMeI = CC[C@H](C)[C@H](NC)C(=O)O; NMeT = CN[C@H](C(=O)O)[C@@H](C)O; hPhe = N[C@@H](CCc1ccccc1)C(=O)O; NMeβAla = CN(CCC(=O)[*:2])[*:1]; NMeL = CN[C@@H](CC(C)C)C(=O)O; NMeV = CN[C@H](C(=O)O)C(C)C; d(β3hA) = C[C@@H](N)CC(=O)O; NMeAbu = CC[C@H](NC)C(=O)O; NMeA = CN[C@@H](C)C(=O)O; Piperidide = C1CCN(*)CC1; Abu = CC[C@H](N)C(=O)O; Sar = CNCC(=O)O; tBu = CC(C)(C)*
measurementName: Mouse Hepatic Microsome CLh,int NADPH(-) (µL/min/mg Protein)
Return type: number; implicit unit µL/min/mg Protein.

Lookup: Which Mouse Hepatic Microsome CLh,int NADPH(-) is reported for this molecule? CC[C@@H]1NC(=O)[C@H](Cc2ccccc2)N(C)C(=O)[C@H]([C@@H](C)CC)NC(=O)[C@H](CC(C)C)N(C)C(=O)[C@H](CC(C)C)NC(=O)CCN(C)C(=O)C[C@@H](C(=O)N2CCCCC2)NC(=O)[C@H](C(C)C)NC(=O)[C@H](CC(C)C)N(C)C(=O)[C@H](C)N(C)C(=O)[C@H]([C@@H](C)O)NC(=O)[C@H](CC(C)C)N(C)C(=O)[C@H](COC(C)(C)C)NC(=O)[C@H](Cc2ccccc2)N(C)C1=O [pd021] ([NMeβAla]L[NMeL]I[NMeF][Abu][NMeF]S(tBu)[NMeL]T[NMeA][NMeL]VD-Piperidide; lactam N-14)
Found: 36.3

Lookup: What value of measured Mouse Hepatic Microsome CLh,int NADPH(-) is listed for CC[C@H](C)[C@@H]1NC(=O)[C@H](C)N(C)C(=O)[C@H]([C@@H](C)O)N(C)C(=O)[C@H](CC(C)C)N(C)C(=O)[C@H]([C@@H](C)CC)NC(=O)[C@H](Cc2ccccc2)N(C)C(=O)[C@H](Cc2ccccc2)N(C)C(=O)[C@H](C)NC(=O)[C@H](COC(C)(C)C)NC(=O)[C@H](CC)N(C)C(=O)[C@H](C(C)C)NC(=O)CCCN(C)C(=O)C[C@@H](C)NC(=O)[C@H](C(C)C)N(C)C1=O [pd050] (cyclo(A[NMeF][NMeF]I[NMeL][NMeT][NMeA]I[NMeV][d(β3hA)][NMeGABA]V[NMeAbu]S(tBu))) ?
Found: 15.9

Lookup: Entry CC[C@H](C)[C@@H]1NC(=O)[C@H](CC(C)C)N(C)C(=O)[C@H](CC(C)C)NC(=O)CCN(C)C(=O)C[C@@H](C)N(C)C(=O)CN(C)C(=O)[C@H](CC(C)C)N(C)C(=O)[C@@H]2CCCN2C(=O)[C@H](CC(C)C)N(C)C(=O)[C@H](COC(C)(C)C)NC(=O)[C@H]([C@@H](C)CC)N(C)C(=O)[C@H](CCc2ccccc2)NC(=O)[C@H](Cc2ccccc2)N(C)C1=O [pd142] (cyclo(I[NMeF][hPhe][NMeI]S(tBu)[NMeL]P[NMeL][Sar][NMedβ3hAla][NMeβAla]L[NMeL])) : reported Mouse Hepatic Microsome CLh,int NADPH(-) = ?
Found: 33.9

###

# key: entry, value: Caco2 Papp (10^-6 cm/sec)
test system: Caco-2 cells; assay: Membrane permeability test using Caco-2 cells with preincubation; assay type: in vitro ADME; settings: Caco-2 cells, preincubation 20 to 24 hours; apical FaSSIF/HBSS 1% DMSO pH 6.0, basal HBSS 4% BSA pH 7.4; basal sample at 180 minutes
Starred links: 1 amine or outer side, 2 acyl side, 3 side chain; linkers in the order of their positions; H or OH if unused. Positions of bridges follow the written chain, without caps; N, C: chain ends. Non-standard residues stand in square brackets, D forms with d. Residues, ends and D or L forms follow the SMILES beside them. *: point of attachment. NMeF = CN[C@@H](Cc1ccccc1)C(=O)O; NMeGABA = CN(CCCC(=O)[*:2])[*:1]; NMeI = CC[C@H](C)[C@H](NC)C(=O)O; NMeT = CN[C@H](C(=O)O)[C@@H](C)O; hPhe = N[C@@H](CCc1ccccc1)C(=O)O; NMeβAla = CN(CCC(=O)[*:2])[*:1]; NMeD = CN[C@@H](CC(=O)O)C(=O)O; NMeL = CN[C@@H](CC(C)C)C(=O)O; NMeV = CN[C@H](C(=O)O)C(C)C; d(β3hA) = C[C@@H](N)CC(=O)O; NMeAbu = CC[C@H](NC)C(=O)O; NMeA = CN[C@@H](C)C(=O)O; Piperidide = C1CCN(*)CC1; NBuGly = CCCCNCC(=O)O; βAla = NCCC(=O)O; Sar = CNCC(=O)O; tBu = CC(C)(C)*

molecule: CC(C)C[C@@H]1NC(=O)[C@H]([C@@H](C)O)N(C)C(=O)[C@@H](C(C)C)NC(=O)C[C@@H](C(=O)N2CCCCC2)NC(=O)[C@H](C(C)C)N(C)C(=O)[C@H](C)N(C)C(=O)[C@H](C(C)C)NC(=O)[C@H](Cc2ccccc2)N(C)C(=O)[C@@H]2CCCN2C(=O)[C@H](CC(C)C)N(C)C(=O)CN(C)C(=O)[C@H](CCc2ccccc2)NC(=O)[C@H](CC(C)C)N(C)C(=O)[C@H](C(C)C)N(C)C1=O [pd040] ([dV][NMeT]L[NMeV][NMeL][hPhe][Sar][NMeL]P[NMeF]V[NMeA][NMeV]D-Piperidide; lactam N-14)
Caco2 Papp (10^-6 cm/sec): 0.17 10^-6 cm/sec
//
molecule: CC[C@H](C)[C@@H]1NC(=O)[C@H](C)N(C)C(=O)[C@H]([C@@H](C)O)NC(=O)[C@H](CC(C)C)N(C)C(=O)[C@H](CC)N(C)C(=O)[C@H](Cc2ccccc2)N(C)C(=O)[C@H](C)NC(=O)[C@H](Cc2ccccc2)N(C)C(=O)[C@H](C)N(C)C(=O)[C@H](CC(C)C)N(C)C(=O)[C@H](CC(C)C)NC(=O)CCCN(C)C(=O)C[C@@H](C(=O)N2CCCCC2)NC(=O)[C@H](CC(C)C)N(C)C1=O [pd041] ([NMeGABA]L[NMeL][NMeA][NMeF]A[NMeF][NMeAbu][NMeL]T[NMeA]I[NMeL]D-Piperidide; lactam N-14)
Caco2 Papp (10^-6 cm/sec): 0.13 10^-6 cm/sec
//
molecule: CC[C@H](C)[C@@H]1NC(=O)[C@H](CC(C)C)N(C)C(=O)[C@H](C)N(C)C(=O)[C@H](C)N(C)C(=O)C[C@@H](C)NC(=O)[C@H](CC(C)C)NC(=O)[C@H](CC(C)C)N(C)C(=O)CN(C)C(=O)[C@H]([C@@H](C)O)NC(=O)[C@H]([C@@H](C)CC)N(C)C(=O)[C@H](CC(C)C)N(C)C(=O)[C@H](C(C)C)NC(=O)[C@H](Cc2ccccc2)N(C)C1=O [pd134] (cyclo(I[NMeF]V[NMeL][NMeI]T[Sar][NMeL]L[d(β3hA)][NMeA][NMeA][NMeL]))
Caco2 Papp (10^-6 cm/sec): 0.75 10^-6 cm/sec

Next up:
Lookup: Enter reported Caco2 Papp (10^-6 cm/sec) observed with Caco-2 cells for CCCCN1CC(=O)N(C)[C@@H](Cc2ccccc2)C(=O)N[C@@H](COC(C)(C)C)C(=O)N(C)[C@@H](CC(C)C)C(=O)NCCC(=O)N(C)[C@@H](C)C(=O)N(C)[C@@H]([C@@H](C)CC)C(=O)N[C@@H](CC(C)C)C(=O)N(C)[C@H](C(=O)N2CCCCC2)CC(=O)N(C)CCC(=O)N(C)[C@@H](CC(C)C)C(=O)N[C@@H]([C@@H](C)CC)C(=O)N(C)[C@@H](Cc2ccccc2)C1=O [pd154] ([NMeβAla][NMeL]I[NMeF][NBuGly][NMeF]S(tBu)[NMeL][βAla][NMeA][NMeI]L[NMeD]-Piperidide; lactam N-13)
Found: 0.82 10^-6 cm/sec
